// MIC lookup, one value per entry
Tested on: N. gonorrhoeae WHO Q
Assay: Liquid broth MIC in Fastidious broth
Details: Neisseria gonorrhoeae, read-out: Minimum Inhibitory Concentration (MIC), N. gonorrhoeae WHO Q
Experimental endpoint: MIC

>  <Molecule>
O=C(O)c1cccc2c1OB(O)[C@@H](NC(=O)C(NC(=O)N1CCCNC1=O)c1ccc(P(=O)(O)O)cc1)C2 (stereo partly shown) [Example 56]

>  <Experimental endpoint>
MIC

>  <Measured result>
4 to 8 µg/mL

$$$$
>  <Molecule>
CS(=O)(=O)N1CCN(C(=O)N[C@@H](C(=O)N[C@H]2Cc3cccc(C(=O)O)c3OB2O)c2ccc(P(=O)(O)O)c(F)c2)C1=O (single isomer, unassigned) [Example 15]

>  <Experimental endpoint>
MIC

>  <Measured result>
< 1 µg/mL

$$$$
>  <Molecule>
CS(=O)(=O)N1CCC[C@H]1C(=O)N[C@H](C(=O)N[C@H]1Cc2cccc(C(=O)O)c2OB1O)c1ccc(P(=O)(O)O)cc1 [Example 43]

>  <Experimental endpoint>
MIC

>  <Measured result>
4 to 8 µg/mL

$$$$
>  <Molecule>
N#Cc1ccnc(C(=O)NC(C(=O)N[C@H]2Cc3cccc(C(=O)O)c3OB2O)c2ccc(P(=O)(O)O)cc2)c1 (stereo partly shown) [Example 179]

>  <Experimental endpoint>
MIC

>  <Measured result>
16 to 32 µg/mL

$$$$
